Could you please report measured ΔHcal for the items listed next?
# Test target: BSA (Bos taurus)
# Construct: purchased Millipore Sigma-Aldrich
# Procedure summary: DSC thermal unfolding of BSA in water and aqueous solutions of ABS phase-forming components
# Format: physicochemical, bovine
# Setup conditions: 1.0 mg/mL BSA, 1 mM component
Note: a bare number is incomplete; add the unit.

As a guide, the following entries are already answered.
CCn1cc[n+](C)c1.O=S(=O)([O-])C(F)(F)C(F)(F)C(F)(F)C(F)(F)F :: 141.5 kcal/mol
C[N+](C)(C)CCO.O=S(=O)([O-])C(F)(F)C(F)(F)C(F)(F)C(F)(F)F [[N1112(OH)][C4F9SO3]] :: 138.2 kcal/mol

// next item, ΔHcal requested
Query: Lookup: ΔHcal / BSA (Bos taurus) / C[N+](C)(C)CCO.C[N+](C)(C)CCO.O=P([O-])(O)O.O=P([O-])(O)O [[N1112(OH)][H2PO4]]
Reply: 112.4 kcal/mol

* * *

# Test target: BSA (Bos taurus, UniProt P02769)
# Construct: purchased Millipore Sigma-Aldrich
# Sequence (P02769 25-607): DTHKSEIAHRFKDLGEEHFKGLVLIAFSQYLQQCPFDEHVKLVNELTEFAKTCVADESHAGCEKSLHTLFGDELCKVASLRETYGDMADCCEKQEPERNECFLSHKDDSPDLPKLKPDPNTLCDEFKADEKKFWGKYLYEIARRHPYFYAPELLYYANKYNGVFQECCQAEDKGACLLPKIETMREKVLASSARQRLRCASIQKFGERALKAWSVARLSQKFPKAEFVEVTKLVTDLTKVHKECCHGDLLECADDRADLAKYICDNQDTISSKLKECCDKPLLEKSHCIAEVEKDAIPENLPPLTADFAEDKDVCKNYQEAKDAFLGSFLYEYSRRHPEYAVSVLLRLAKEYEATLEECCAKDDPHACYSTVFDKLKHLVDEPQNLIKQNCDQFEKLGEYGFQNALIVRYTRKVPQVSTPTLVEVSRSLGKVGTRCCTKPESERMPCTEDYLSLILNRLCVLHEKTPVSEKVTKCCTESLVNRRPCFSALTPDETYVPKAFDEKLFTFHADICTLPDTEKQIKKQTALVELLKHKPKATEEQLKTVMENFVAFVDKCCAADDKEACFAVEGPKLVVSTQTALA
# Procedure summary: Far-UV CD secondary structure of BSA (CONTIN-LL deconvolution)
# Type: physicochemical, bovine
# Set-up: unit not given here
# Setup conditions: 1.0 mg/mL BSA, 25 mM component, 25 °C
Measurement name: Distorted Alpha Helix

OC[C@H]1O[C@@](CO)(O[C@H]2O[C@H](CO)[C@@H](O)[C@H](O)[C@H]2O)[C@@H](O)[C@@H]1O [Sucrose, sucrose] :: 0.196
CCn1cc[n+](C)c1.O=S(=O)([O-])C(F)(F)C(F)(F)C(F)(F)C(F)(F)F :: 0.197

// next item, Distorted Alpha Helix requested
Query: Give its Distorted Alpha Helix value. Item: C[N+](C)(C)CCO.C[N+](C)(C)CCO.O=P([O-])(O)O.O=P([O-])(O)O [[N1112(OH)][H2PO4]]
Reply: 0.195

* * *

Could you please report measured ΔG for the items listed next?
# Test target: BSA (Bos taurus, UniProt P02769)
# Construct: purchased Millipore Sigma-Aldrich
# Procedure summary: DSC thermal unfolding of BSA in water and aqueous solutions of ABS phase-forming components
# Type: physicochemical, bovine
# Setup conditions: 1.0 mg/mL BSA, 10 mM component
Numbers only, in kcal/mol.

As a guide, the following entries are already answered.
C[N+](C)(C)CCO.C[N+](C)(C)CCO.O=P([O-])(O)O.O=P([O-])(O)O [[N1112(OH)][H2PO4]] :: 17.42
C[N+](C)(C)CCO.O=S(=O)([O-])C(F)(F)C(F)(F)C(F)(F)C(F)(F)F [[N1112(OH)][C4F9SO3]] :: 32.27
CCn1cc[n+](C)c1.O=S(=O)([O-])C(F)(F)C(F)(F)C(F)(F)C(F)(F)F :: 29.09

// next item, ΔG requested
Query: Give its ΔG value. Item: CCCCn1cc[n+](C)c1.O=S(=O)([O-])C(F)(F)F [[C4C1Im][CF3SO3]]
Reply: 19.07
